# TGT: NK1 (Homo sapiens, UniProt P25103)
# Sequence (P25103 whole entry): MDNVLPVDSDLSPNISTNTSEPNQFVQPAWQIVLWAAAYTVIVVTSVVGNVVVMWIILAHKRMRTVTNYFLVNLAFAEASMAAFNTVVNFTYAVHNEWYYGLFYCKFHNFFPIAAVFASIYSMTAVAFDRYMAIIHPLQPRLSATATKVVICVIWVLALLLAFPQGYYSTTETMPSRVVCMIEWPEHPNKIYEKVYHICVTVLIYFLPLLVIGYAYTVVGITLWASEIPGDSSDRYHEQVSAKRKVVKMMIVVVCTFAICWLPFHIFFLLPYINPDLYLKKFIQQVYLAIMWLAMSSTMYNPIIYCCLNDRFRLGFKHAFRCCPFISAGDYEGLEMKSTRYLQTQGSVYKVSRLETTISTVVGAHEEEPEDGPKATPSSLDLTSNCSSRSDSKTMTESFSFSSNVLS
# PROCEDURE_SUMMARY: Signal transduction (ST), intracellular Ca++ (FLIPR), NK1 antagonistic activity
# Type: cell-based
# MEASUREMENT_SETUP: read-out: pIC50 NK1 (converted)
# Method: This test evaluates in vitro functional NK1 antagonistic activity. For the measurements of intracellular Ca^++ concentrations the cells were grown on 96-well (black wall/transparent bottom) plates from Costar for 2 days until they reached confluence. […] The cells were preincubated with a concentration range of antagonists for 20 min at RT and Ca^++-signals after addition of the agonists were measured in a Fluorescence Image Plate Reader (FLIPR from Molecular Devices, Crawley, England). […]
REPORTED_METRIC: IC50 (nM)

Form: compound = O=C(c1cnccn1)N1CCC(N2CCN(C3CCN(C(=O)c4cc(C(F)(F)F)cc(C(F)(F)F)c4)C(Cc4ccc(Cl)c(Cl)c4)C3)CC2)C1 (stereo not shown) ; IC50 = 6.31

Consider O=C(c1cc(C(F)(F)F)cc(C(F)(F)F)c1)N1CC[C@H](N2CCN(C3CCN(S(=O)(=O)c4ccc(CCOCc5ccccc5)s4)C3)CC2)C[C@H]1Cc1ccccc1 (stereo partly shown) . Its measured IC50 is 158

IC50 in this record for O=C(C1CCCCC1)N1CCC(N2CCN(C3CCN(C(=O)c4cc(C(F)(F)F)cc(C(F)(F)F)c4)C(Cc4ccc(F)c(F)c4)C3)CC2)C1 (stereo not shown) [Compound 358] : 12.6

a: Cc1cccc(C(=O)N2CCC(N3CCN([C@H]4CCN(C(=O)c5cc(C(F)(F)F)cc(C(F)(F)F)c5)[C@H](Cc5ccccc5)C4)CC3)C2)c1C (stereo partly shown)
b: O=C(c1cnccn1)N1CC[C@@H](N2CCN([C@H]3CCN(C(=O)c4cc(C(F)(F)F)cc(C(F)(F)F)c4)[C@H](Cc4ccc(Cl)c(Cl)c4)C3)CC2)C1
Enquiry: Could you determine which record has the numerically smaller IC50? Candidates: a and b Select an item and report its label.
Return: b

a: O=C(C(=O)N1CCC(N2CCN([C@H]3CCN(C(=O)c4cc(C(F)(F)F)cc(C(F)(F)F)c4)[C@H](Cc4ccccc4)C3)CC2)C1)c1cccs1 (stereo partly shown)
b: Cc1nnsc1C(=O)N1CCC(N2CCN(C3CCN(C(=O)c4cc(C(F)(F)F)cc(C(F)(F)F)c4)C(Cc4ccccc4)C3)CC2)C1 (single isomer, unassigned) [Compound 380]
c: O=C(c1cc(C(F)(F)F)cc(C(F)(F)F)c1)N1CC[C@H](N2CCN(C3CCN(C(=O)C4(O)CC4)C3)CC2)C[C@H]1Cc1ccccc1 (stereo partly shown)
d: O=C(c1cc(C(F)(F)F)cc(C(F)(F)F)c1)N1CCC(N2CCN(C3CCN(Cc4ccccc4)C3)CC2)CC1Cc1ccc(F)c(F)c1 (single isomer, unassigned) [Compound 223]
e: COc1ccc(S(=O)(=O)N2CCC(N3CCN([C@H]4CCN(C(=O)c5cc(C(F)(F)F)cc(C(F)(F)F)c5)[C@H](Cc5ccccc5)C4)CC3)C2)cc1 (stereo partly shown)
Enquiry: List by increasing IC50. Use the labels to give the ranking in the order requested.
Return: b, c, e, a, d

A: O=C(c1csnn1)N1CCC(N2CCN([C@H]3CCN(C(=O)c4cc(C(F)(F)F)cc(C(F)(F)F)c4)[C@H](Cc4ccccc4)C3)CC2)C1 (stereo partly shown)
B: O=C(C1CC1)N1CC[C@H](N2CCN([C@H]3CCN(C(=O)c4cc(C(F)(F)F)cc(C(F)(F)F)c4)[C@H](Cc4ccc(Cl)c(Cl)c4)C3)CC2)C1
C: O=C(c1c(Cl)cccc1Cl)N1CC[C@H](N2CCN([C@H]3CCN(C(=O)c4cc(C(F)(F)F)cc(C(F)(F)F)c4)[C@H](Cc4ccc(Cl)c(Cl)c4)C3)CC2)C1
Enquiry: Hi! Can you put these in order of IC50, lowest number first? I'd appreciate it if you listed the labels in the requested order.
Return: B, C, A
(B: 7.94 nM, C: 20 nM, A: 31.6 nM)

P: COc1cccc(OC)c1C(=O)N1CCC(N2CCN([C@H]3CCN(C(=O)c4cc(C(F)(F)F)cc(C(F)(F)F)c4)[C@H](Cc4ccccc4)C3)CC2)C1 (stereo partly shown)
Q: O=C(c1cc(CCOCc2ccccc2)cs1)N1CCC(N2CCN([C@H]3CCN(C(=O)c4cc(C(F)(F)F)cc(C(F)(F)F)c4)[C@H](Cc4ccccc4)C3)CC2)C1 (stereo partly shown)
R: O=C(c1cc(C(F)(F)F)cc(C(F)(F)F)c1)N1CC[C@H](N2CCN([C@H]3CCN(C(=O)n4ccnc4)C3)CC2)C[C@H]1Cc1ccc(Cl)c(Cl)c1
Enquiry: # rank_down: sort by IC50, max first Response format: the labels, sorted as the prompt asks.
Return: Q, P, R

P: O=C(c1cccs1)N1CCC(N2CCN(C3CCN(C(=O)c4cc(C(F)(F)F)cc(C(F)(F)F)c4)C(Cc4ccc(Cl)c(Cl)c4)C3)CC2)C1 (stereo not shown)
Q: CC(=O)N1CCC[C@H]1C(=O)N1CCC(N2CCN([C@H]3CCN(C(=O)c4cc(C(F)(F)F)cc(C(F)(F)F)c4)[C@H](Cc4ccccc4)C3)CC2)C1 (stereo partly shown)
R: Cc1noc(C)c1S(=O)(=O)N1CCC(N2CCN(C3CCN(C(=O)c4cc(C(F)(F)F)cc(C(F)(F)F)c4)C(Cc4ccccc4)C3)CC2)C1 (stereo not shown)
Enquiry: // ascending sort on recorded IC50 A complete answer lists every label in the requested sequence.
Return: R, P, Q

I: CC(C)(C)OC(=O)N1CCC(C(=O)N2CCC(N3CCN([C@H]4CCN(C(=O)c5cc(C(F)(F)F)cc(C(F)(F)F)c5)[C@H](Cc5ccccc5)C4)CC3)C2)C1 (stereo partly shown)
II: O=C(c1ccoc1)N1CC[C@H](N2CCN([C@@H]3CCN(C(=O)c4cc(C(F)(F)F)cc(C(F)(F)F)c4)[C@@H](Cc4ccc(Cl)c(Cl)c4)C3)CC2)C1
Enquiry: Out of I and II , name the one with the higher IC50. Please respond with the label that marks your chosen entry.
Return: II
